From: patent US20250250357A1

Target: T1, human MSLN-FL-his protein (human, UniProt Q13421 296-580)
T1 construct: made in HEK293E cells, purified on nickel column; also called hMSLN-FL-his; human MSLN full-length protein; not shown: His tag
T1 sequence (Q13421 other isoform, or with tags, fused parts or gaps): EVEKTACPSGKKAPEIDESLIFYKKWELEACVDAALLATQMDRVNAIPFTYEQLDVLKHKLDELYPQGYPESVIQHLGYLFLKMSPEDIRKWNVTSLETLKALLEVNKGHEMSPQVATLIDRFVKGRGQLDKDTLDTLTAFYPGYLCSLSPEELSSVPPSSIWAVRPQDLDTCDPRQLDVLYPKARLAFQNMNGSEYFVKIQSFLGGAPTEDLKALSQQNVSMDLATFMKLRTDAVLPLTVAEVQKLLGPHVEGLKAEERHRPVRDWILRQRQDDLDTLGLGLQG
Test: competitive ELISA; row F1.56.1
Assign labels as follows, please: condition met for competition rate below -90%; condition not met for competition rate equal to or exceeding -90%.

Worked examples, 4 binders total:
binder="Tab107 (YP3, hIgG1) (antibody, V domains shown, Control antibody; VH and VL recombined into human IgG1 CH and CL expression vectors; also called YP3 human IgG1 antibody) VH: QEQLVESGGGLVQPGASLTLTCTASGIDFSRYYMCWVRQAPGKGLEGIACIYIGGSGSTYYASWAKGRFTISKASSTTVTLQMTSLTAADTATYFCARGTNLNYIFRLWGPGTLVTVSS VL: DVVMTQTPSPVSAAVGGTVTIKCQASQSINNGLAWYQQKPGQPPRLLIYSASNLESGVPSRFKGSGSGTEFTLTISDLECDDAATYYCQCIWDGNSYVNAFGGGTEVVVRT" assigned_class="condition met"
binder="S009-F2.16.10 (antibody, human IgG1, kappa, V domains shown, human-murine chimeric antibody, human IgG1/kappa constant regions) VH: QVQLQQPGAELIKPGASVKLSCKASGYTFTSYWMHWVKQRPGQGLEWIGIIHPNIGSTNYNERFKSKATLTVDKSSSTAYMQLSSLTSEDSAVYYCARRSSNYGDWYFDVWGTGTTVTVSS VL: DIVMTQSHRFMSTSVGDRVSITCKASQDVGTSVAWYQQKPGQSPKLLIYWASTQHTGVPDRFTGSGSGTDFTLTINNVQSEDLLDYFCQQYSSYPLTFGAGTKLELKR" assigned_class="condition met"
binder="S009-F1.35.24 (antibody, human IgG1, kappa, V domains shown, human-murine chimeric antibody, human IgG1/kappa constant regions) VH: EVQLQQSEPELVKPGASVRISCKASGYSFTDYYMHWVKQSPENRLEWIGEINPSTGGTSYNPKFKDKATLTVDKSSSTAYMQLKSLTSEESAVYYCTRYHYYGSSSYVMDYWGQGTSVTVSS VL: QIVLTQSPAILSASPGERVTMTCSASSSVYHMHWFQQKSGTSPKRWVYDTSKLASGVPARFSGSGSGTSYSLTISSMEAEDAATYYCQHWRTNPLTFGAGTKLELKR" assigned_class="condition not met"
binder="S009-F1.56.1 (antibody, human IgG1, kappa, V domains shown, human-murine chimeric antibody, human IgG1/kappa constant regions) VH: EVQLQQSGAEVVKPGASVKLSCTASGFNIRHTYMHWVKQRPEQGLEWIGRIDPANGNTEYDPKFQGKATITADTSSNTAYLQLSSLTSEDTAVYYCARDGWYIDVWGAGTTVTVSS VL: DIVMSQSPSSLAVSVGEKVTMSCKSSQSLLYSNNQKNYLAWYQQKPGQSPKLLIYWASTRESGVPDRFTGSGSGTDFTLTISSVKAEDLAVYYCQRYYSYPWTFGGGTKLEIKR" assigned_class="condition not met"

Now consider the entry below.
Determine if S009-F2.39.3 (antibody, human IgG1, kappa, V domains shown, human-murine chimeric antibody, human IgG1/kappa constant regions) VH: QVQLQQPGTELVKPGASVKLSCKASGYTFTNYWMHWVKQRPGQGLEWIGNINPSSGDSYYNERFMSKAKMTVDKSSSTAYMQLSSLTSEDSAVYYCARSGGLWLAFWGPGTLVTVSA VL: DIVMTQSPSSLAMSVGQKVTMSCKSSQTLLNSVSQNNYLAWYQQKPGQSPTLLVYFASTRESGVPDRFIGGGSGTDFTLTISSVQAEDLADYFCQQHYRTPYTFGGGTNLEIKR shows competition rate strictly lower than -90%.
condition not met
